Each item that follows carries a reported absorption maximum.
# experimentalDetails: solvent given as SMILES
# settings: in CC(C)=O
Record the value in nm, omitting the unit from your answer.

{"columns": ["smilesEntry", "measurement"],
 "data": [
  ["CCN1\\C(=C/C=C/C=C/C2=[N+](CC)c3ccc4cc(Br)ccc4c3C2(C)C)C(C)(C)c2c1ccc1cc(Br)ccc21", 682]
]}

Task: Recorded absorption maximum of Cc1cc(C)c(B(c2ccc(-c3nc4c5ccccc5c5ccccc5c4[nH]3)cc2)c2c(C)cc(C)cc2C)c(C)c1 , please.
Result: 380

Task: Recorded absorption maximum of CN(C)CCNCc1c2ccccc2cc2ccccc12 , please.
Result: 365

---

Each item that follows carries a reported absorption maximum.
# experimentalDetails: solvent given as SMILES
# settings: in CCCCCC
Record the value in nm, omitting the unit from your answer.

{"columns": ["smilesEntry", "measurement"],
 "data": [
  ["c1ccc(-c2ccc(-c3ccc(N(c4ccccc4)c4ccccc4)cc3)c3nsnc23)cc1", 438]
]}

Task: Recorded absorption maximum of O=S(=O)(/N=c1\oc2cccc3c4c(-c5ccccc5)oc5cccc(c(c1-c1ccccc1)c23)c54)C(F)(F)F , please.
Result: 458

Task: Recorded absorption maximum of CC(C)[Si](C#Cc1c2ccccc2c(C#C[Si](C(C)C)(C(C)C)C(C)C)c2nc3c(nc12)Cc1ccccc1-3)(C(C)C)C(C)C , please.
Result: 486

Task: Recorded absorption maximum of CCCCCCCCCCCCN1C(=O)c2cccc3c(N(Cc4ccccn4)Cc4ccccn4)c4ccccc4c(c23)C1=O , please.
Result: 480

Task: Recorded absorption maximum of CCCCCCCCCCCCCCCCN(CCCCCCCCCCCCCCCC)c1ccc(/C=C/c2cc[n+](Cc3cc(C[n+]4ccc(/C=C/c5ccc(N(CCCCCCCCCCCCCCCC)CCCCCCCCCCCCCCCC)cc5)cc4)cc(C[n+]4ccc(/C=C/c5ccc(N(CCCCCCCCCCCCCCCC)CCCCCCCCCCCCCCCC)cc5)cc4)c3)cc2)cc1 , please.
Result: 481

Task: Recorded absorption maximum of c1ccc(-c2c3c(c(-c4ccccc4)c4cc5ccccc5cc24)Cc2c(c(-c4ccccc4)c4cc5ccccc5cc4c2-c2ccccc2)C3)cc1 , please.
Result: 388

---

# experimentalDetails: solvent given as SMILES
# settings: in CS(C)=O
Each item that follows carries a reported absorption maximum.
Record the value in nm, omitting the unit from your answer.

{"columns": ["smilesEntry", "scaleUnit", "absorption maximum"],
 "data": [
  ["CC1(C)C(/C=C/c2cc3ccc(O)cc3oc2=O)=[N+](CCCS(=O)(=O)[O-])c2ccc(S(=O)(=O)O)cc21", "nm", 485],
  ["CCCCCN(c1ccccc1)c1ccc2c(c1)C(CC)(CC)c1cc(/C=C/c3ccc(/C=C(\\C#N)C(=O)O)s3)ccc1-2", "nm", 430],
  ["O=C1c2ccccc2C(=O)N1c1ccc(Cn2cncn2)cc1", "nm", 320]
]}

Task: Recorded absorption maximum of O=C1CC(=O)Nc2cc(Cl)ccc2N1 , please.
Result: 298

Task: Recorded absorption maximum of O=c1oc2ccccc2c2c1c(=O)oc1c3ccccc3cc(O)c12 , please.
Result: 480

---

# experimentalDetails: solvent given as SMILES
# settings: in C1CCCCC1
Measured absorption maximum determines class: low (below 400 nm), intermediate (400 nm to below 500 nm), high (500 nm or more)

Here's what some known entries look like.
{"columns": ["smilesEntry", "classAssignment"],
 "data": [
  ["CCCC1(CCC)c2cc(-c3ccccc3)ccc2-c2ccc(-c3ccc4c(c3)C(CCC)(CCC)c3cc(-c5ccccc5)ccc3-4)cc21", "low"],
  ["N#Cc1nnn(-c2ccnc3cc(Cl)ccc23)c1N", "low"],
  ["COc1c2ccccc2c(OC)c2c1c1ccc(C(F)(F)F)cc1n2C", "intermediate"],
  ["COc1ccc(OC)cc1", "low"],
  ["CN(C)c1ccc(-c2nc(C#N)c(C#N)n2C)cc1", "low"],
  ["Cc1ccccc1C1=C2C=c3c(oc4ccc(F)cc34)=[N+]2[B-](F)(F)n2c1cc1c3cc(F)ccc3oc12", "high"],
  ["Cc1cccc(C2=CC3=C(c4c(C)cc(C)cc4C)c4cc(-c5cccc(C)c5)c(-c5cccc(C)c5)n4[B-](F)(F)[N+]3=C2c2cccc(C)c2)c1", "high"],
  ["CC(C)(C)c1ccc2c(c1)Sc1cc(C(C)(C)C)ccc1N2c1ccc2c(ccc3nc4ccc5cc(N6c7ccc(C(C)(C)C)cc7Sc7cc(C(C)(C)C)ccc76)ccc5c4nc32)c1", "intermediate"],
  ["CN(C)c1ccc2nc(/C=C/c3ccccc3)c(=O)oc2c1", "intermediate"],
  ["CC(C)(C)c1ccc2c3c(c4ccc(C(C)(C)C)cc4c2c1)=[N+]1C(=C(c2ccccc2)c2c(Br)c4c5ccc(C(C)(C)C)cc5c5cc(C(C)(C)C)ccc5c4n2[B-]1(F)F)C=3Br", "high"]
]}

Task: Lab note: sort CN(C)CCN(Cc1c2ccccc2cc2ccccc12)c1ccc([N+](=O)[O-])cc1[N+](=O)[O-] into the matching absorption maximum band.
Result: low

Task: Lab note: sort COc1cccc(C2=CC3=C(c4c(C)cc(C)cc4C)c4cc(-c5cccc(OC)c5)c(-c5cccc(OC)c5)n4[B-](F)(F)[N+]3=C2c2cccc(OC)c2)c1 into the matching absorption maximum band.
Result: high

Task: Lab note: sort CC1=[N+]2C(=C(c3ccc(Br)cc3)c3ccc(C)n3[B-]2(F)F)C=C1c1cc2n(c1)[B-](F)(F)[N+]1=CC=CC1=C2c1c(C)cc(C)cc1C into the matching absorption maximum band.
Result: high

Task: Lab note: sort CCCC1(CCC)c2ccccc2-c2ccc(-c3ccc(C(C)(C)C)cc3)cc21 into the matching absorption maximum band.
Result: low
